Record form. Attribute: EC50. Fill in for each entry.
Tested on: NQO1 specific enzyme activity in BEAS-2B cells (marker for NRF2 activation)
test: BEAS-2B NQO1 MTT Assay
Assay type: cell-based
assay-context: Homo sapiens, BEAS-2B, 48 h, compound incubated 48 hours, read-out: EC50 (NQO1 specific enzyme activity induction)

I looked up CCC[C@@H]1CCCCN1C(=O)c1cccc(-c2cc(C)cc(-n3ncc(C(=O)O)c3C3CC3c3cn(C)nn3)c2)c1 (stereo partly drawn) and its EC50 for NQO1 specific enzyme activity in BEAS-2B cells (marker for NRF2 activation) was 100 to 1000 nM

Hey, NQO1 specific enzyme activity in BEAS-2B cells (marker for NRF2 activation) data for CCC[C@@H]1CCCCN1C(=O)c1cccc(-c2cc(C)cc(-n3ncc(C(=O)O)c3[C@H]3C[C@@H]3c3cn(C)nn3)c2)c1 (single isomer, unassigned) : EC50 came out at 100 to 1000 nM

Let us examine a further case.
CCC[C@@H]1CCCCN1C(=O)c1cccc(-c2cccc(-n3ncc(C(=O)O)c3[C@H]3C[C@@H]3c3cn(C(C)C)nn3)c2)c1 (racemic) tested on NQO1 specific enzyme activity in BEAS-2B cells (marker for NRF2 activation) gave EC50: 100 to 1000 nM
